Target: Serine/threonine-protein kinase PLK1 (Homo sapiens) (UniProt P53350)
Sequence (P53350 whole entry, looked up, the tested form may be a part): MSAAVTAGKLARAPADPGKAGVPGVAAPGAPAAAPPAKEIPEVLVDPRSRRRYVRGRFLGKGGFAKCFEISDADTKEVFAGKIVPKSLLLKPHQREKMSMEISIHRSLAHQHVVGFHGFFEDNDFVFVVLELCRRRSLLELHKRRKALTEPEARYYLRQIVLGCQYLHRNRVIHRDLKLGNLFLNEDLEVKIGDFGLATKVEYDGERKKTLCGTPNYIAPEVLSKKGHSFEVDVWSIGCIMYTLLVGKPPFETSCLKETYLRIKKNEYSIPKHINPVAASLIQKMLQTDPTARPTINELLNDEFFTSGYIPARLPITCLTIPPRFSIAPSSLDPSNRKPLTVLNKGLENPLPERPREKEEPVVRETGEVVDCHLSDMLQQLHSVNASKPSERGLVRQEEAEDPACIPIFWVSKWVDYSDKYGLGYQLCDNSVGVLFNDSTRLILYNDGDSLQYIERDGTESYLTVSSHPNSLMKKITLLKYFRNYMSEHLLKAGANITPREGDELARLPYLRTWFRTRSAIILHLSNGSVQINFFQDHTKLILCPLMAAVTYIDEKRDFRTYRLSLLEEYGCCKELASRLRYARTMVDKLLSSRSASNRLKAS
Test: PLK1 polo-box domain peptide-binding inhibitors, SAR follow-up, biochemical, fluorescence polarization, purchased analogs, concentration response (AID 1083)
Conditions: Plk1 PBD peptide binding
The source made the active and inactive calls. How the calls were made is not given here.
Classes to choose from: class 1 for active, class 0 for inactive

> print(dat)
                                  compound  assignedcategory
1  CC(=O)N(CN1C(=O)c2ccccc2C1=O)c1ccccc1Cl           class 0

Challenge: Hi team, can someone confirm the assay call for CCOC(=O)c1ccc(NC(=O)C2C3CCC(C3)C2C(=O)O)cc1 (centres undefined) ?
Response given: class 0

Challenge: Next compound up: `COc1ccc(-c2nc3c(=O)n(C)c(=O)nc-3n(C)n2)cc1OC`
Response given: class 1

Challenge: Next compound up: `Cn1nc(-c2ccccc2)nc2c(=O)n(C)c(=O)nc1-2`
Response given: class 1

Challenge: Next compound up: `Cc1ccc(-c2nnc3[nH]c(=O)n(C)c(=O)c3n2)cc1`
Response given: class 0

Challenge: Next compound up: `CC(=O)N(CN1C(=O)c2ccccc2C1=O)c1cccc(C)c1`
Response given: class 0

Challenge: Next compound up: `CC(=O)Oc1ccccc1N(/C=C1/Sc2ccccc2C1=O)C(C)=O`
Response given: class 0

Challenge: Next compound up: `CC(=O)N(CN1C(=O)c2ccccc2C1=O)c1ccc2ccccc2c1`
Response given: class 0

Challenge: Next compound up: `CCn1nc(-c2ccc([N+](=O)[O-])cc2)nc2c(=O)n(C)c(=O)nc1-2`
Response given: class 1

Challenge: Next compound up: `Cn1c(=O)[nH]c(=O)c2nc(-c3ccccc3)c(-c3ccccc3)nc21`
Response given: class 0

Challenge: Next compound up: `CCOC(=O)c1ccc(N=Cc2c(O)n(-c3ccc(OCC)cc3)c(=O)[nH]c2=O)cc1`
Response given: class 0

Challenge: Next compound up: `CC(=O)N(/N=C1\Sc2ccccc2C1=O)c1ccccc1Cl`
Response given: class 0

Challenge: Next compound up: `CCOc1ccc(-c2nc3c(=O)n(C)c(=O)nc-3n(C)n2)cc1OC`
Response given: class 1

Challenge: Next compound up: `CC(=O)N(CN1C(=O)c2ccccc2C1=O)c1cc(Br)ccc1C`
Response given: class 0

Challenge: Next compound up: `CC(=O)Oc1c(Cl)c(N2CCOCC2)c(OC(C)=O)c2ccccc12`
Response given: class 0

Challenge: Next compound up: `COc1ccccc1N(/C=C1\Sc2ccccc2C1=O)C(C)=O`
Response given: class 0
